# Target Entity: Amine oxidase [flavin-containing] A (Homo sapiens); note: assay procedure not described here
# Sequence (P21397 whole entry): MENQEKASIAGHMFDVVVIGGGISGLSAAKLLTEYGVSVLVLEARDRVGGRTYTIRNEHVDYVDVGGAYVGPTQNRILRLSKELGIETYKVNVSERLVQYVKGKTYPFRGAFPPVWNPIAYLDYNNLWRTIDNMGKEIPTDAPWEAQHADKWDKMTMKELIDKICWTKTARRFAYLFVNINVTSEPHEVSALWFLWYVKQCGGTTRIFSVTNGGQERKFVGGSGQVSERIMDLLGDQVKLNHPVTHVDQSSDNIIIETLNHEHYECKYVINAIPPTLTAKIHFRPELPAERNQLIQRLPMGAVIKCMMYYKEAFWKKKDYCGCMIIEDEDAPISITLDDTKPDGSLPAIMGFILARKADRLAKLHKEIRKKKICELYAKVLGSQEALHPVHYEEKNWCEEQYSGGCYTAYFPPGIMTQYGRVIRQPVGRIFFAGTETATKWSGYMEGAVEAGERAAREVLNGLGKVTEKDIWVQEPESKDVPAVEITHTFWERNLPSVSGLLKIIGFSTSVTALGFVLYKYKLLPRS
# Format: functional
Measurement Type: AC50

# lookup: CC(=O)OCC1=C(C(=O)O)N2C(=O)[C@@H](NC(=O)Cc3cccs3)[C@H]2SC1 on Amine oxidase [flavin-containing] A (Homo sapiens), AC50 = > 30 µM

# lookup: CC(=O)Oc1ccccc1C(=O)O on Amine oxidase [flavin-containing] A (Homo sapiens), AC50 = > 30 µM

# lookup: COc1nc(C)nc(Cl)c1N=C1NCCN1 on Amine oxidase [flavin-containing] A (Homo sapiens), AC50 = > 30 µM

====

# Target Entity: Amine oxidase [flavin-containing] A (Homo sapiens); note: assay procedure not described here
# Format: functional
Measurement Type: AC50

For this compound ( CC(C)C[C@H](NC(=O)[C@H](Cc1ccccc1)NC(=O)c1cnccn1)B(O)O ), measured AC50 is > 30 µM

For this compound ( C[C@]12C=CC(=O)C=C1C(Cl)=C[C@@H]1[C@@H]2[C@@H](O)C[C@@]2(C)[C@H]1CC[C@]2(O)C(=O)CO ), measured AC50 is > 30 µM

For this compound ( Cc1ccc(O)c([C@H](CCN(C(C)C)C(C)C)c2ccccc2)c1 ), measured AC50 is > 10 µM

For this compound ( Oc1cc(Cl)ccc1Oc1ccc(Cl)cc1Cl ), measured AC50 is > 30 µM

For this compound ( CC1=C(/C=C/C(C)=C/C=C/C(C)=C/C(=O)Oc2c(C)c(C)c3c(c2C)CCC(C)(CCCC(C)CCCC(C)CCCC(C)C)O3)C(C)(C)CCC1 (stereo not given) ), measured AC50 is > 30 µM

The reported numbers originate from ChEMBL document CHEMBL5291721.
